# Tested on: H2405 cells
# assay.notes: H2405 Cell Proliferation Assay (1)
# Format: cell-based
# test.context: Homo sapiens, NCI-H2405
pIC50: −log10 of the molar value.
# Lookup of reported pIC50 keyed by entry
assay.metric: pIC50

>>> result("Cc1ncc(NC(=O)c2ccnc(C(C)(C)C#N)c2)cc1-c1cccc(-c2ncnn3cccc23)c1")
"5.00 to 6.00"
>>> result("Cc1ccc(NC(=O)c2ccnc(C(C)(C)C#N)c2)cc1-c1cncc(-c2cc(N)ncn2)c1")
"6.30 to 7.00"
>>> result("COC(=O)Nc1cc(-c2cc(-c3cc(NC(=O)c4ccnc(C(C)(C)F)c4)c(F)cc3C)ccn2)ccn1")
"6.30 to 7.00"
>>> result("Cc1ncc(NC(=O)c2cn(C(C)C)nn2)cc1-c1ccnc(-c2ccnc(NC(=O)C3CC3)c2)n1")
"6.30 to 7.00"
>>> result("Cc1ccc(NC(=O)c2ccnc(C(F)(F)F)c2)cc1-c1cccc(-c2ccnc(NC(=O)C3CC3)c2)c1")
"≥ 7.00"
>>> result("Cc1ccc(NC(=O)c2ccnc(C(C)(C)C#N)c2)cc1-c1ccnc(-c2ccnc(N)c2)n1")
"6.00 to 6.30"
>>> result("Cc1ccc(NC(=O)c2ccnc(C3(C#N)CC3)c2)cc1-c1cncc(-c2cc(NC(=O)C3CC3)ncn2)c1")
"≥ 7.00"
>>> result("COC(=O)Nc1cc(-c2cccc(-c3cc(NC(=O)c4ccnc(C(C)(C)F)c4)cnc3C)c2)ncn1")
"5.00 to 6.00"
>>> result("CNC(=O)c1cc(-c2cnnc(-c3cc(NC(=O)c4ccc(F)c(C(F)(F)F)c4)ccc3C)c2)ccn1")
"6.00 to 6.30"
>>> result("COC(C)(C)C(=O)Nc1cc(-c2cc(-c3cc(NC(=O)c4ccnc(C(C)(C)C#N)c4)ccc3C)ccn2)ccn1")
"6.00 to 6.30"
>>> result("Cc1ncc(NC(=O)c2cncc(C(F)F)c2)cc1-c1cccc(-c2cc(NC(=O)C3CC3)ncn2)c1")
"6.30 to 7.00"
>>> result("COC(=O)Nc1cc(-c2nccc(-c3cc(NC(=O)c4ccnc(C(C)(C)C#N)c4)c(F)cc3C)n2)ccn1")
"≥ 7.00"
>>> result("CNC(=O)c1cc(-c2cnnc(-c3cc(NC(=O)CCC(C)(C)C#N)cnc3C)c2)ccn1")
"5.00 to 6.00"
>>> result("Cc1cc(F)c(NC(=O)c2ccnc(C(C)(C)F)c2)cc1-c1ccnc(-c2ccnc(NC(=O)C3CC3)c2)c1")
"≥ 7.00"
>>> result("Cc1ncc(NC(=O)c2cn(C(C)C)nn2)cc1-c1nccc(-c2ccnc(NC(=O)C3CC3)c2)n1")
"5.00 to 6.00"

* * *

# System: WM3928 cells
# assay.notes: WM3928 Cell Proliferation Assay (1)
# Format: cell-based
pIC50: −log10 of the molar value.
Measured pIC50, listed per entry for reference.
assay.metric: pIC50

>>> result("Cc1ccc(NC(=O)c2ccnc(C(C)(C)C#N)c2)cc1-c1ccnc(-c2ccnc3c2CC(=O)N3)n1")
"6.30 to 7.00"
>>> result("Cc1nc(-c2ccnc(NC(=O)C3CC3)c2)cc(-c2cc(NC(=O)c3ccnc(C4CC4)c3)cnc2C)n1")
"6.30 to 7.00"
>>> result("CC(=O)Nc1cc(-c2cc(-c3cc(NC(=O)c4ccnc(C(C)(C)C#N)c4)ccc3C)nc(C)n2)ccn1")
"≥ 7.00"
>>> result("Cc1ncc(NC(=O)c2ccnc(C(C)(C)C#N)c2)cc1-c1cccc(-c2cc(NC(=O)C3CC3)ncn2)n1")
"5.00 to 6.00"
>>> result("Cc1ncc(NC(=O)c2ccnc(C(C)(C)C#N)c2)cc1-c1ccnc(-c2ccnc(NC(=O)C3CC3)c2)n1")
"≥ 7.00"
>>> result("CNC(=O)c1cc(-c2nccc(-c3cc(NC(=O)c4ccnc(C(C)(C)F)c4)c(F)cc3C)n2)ccn1")
"≥ 7.00"
>>> result("Cc1ccc(NC(=O)c2ccnc(C(C)(C)C#N)c2)cc1-c1nccc(-c2ccnc(NC(=O)C3CC3)c2)n1")
"≥ 7.00"
>>> result("COC(=O)Nc1cc(-c2cncc(-c3cc(NC(=O)c4ccnc(C(C)(C)F)c4)ccc3C)c2)ncn1")
"≥ 7.00"
>>> result("CNC(=O)c1cc(-c2cncc(-c3cc(NC(=O)c4ccnc(C5(C#N)CC5)c4)ccc3C)c2)ncn1")
"≥ 7.00"
>>> result("CNC(=O)c1cc(-c2cc(-c3cc(NC(=O)c4ccnc(C5(C#N)CC5)c4)ccc3C)ccn2)ccn1")
"≥ 7.00"
>>> result("Cc1ccc(NC(=O)c2ccnc(C3(C#N)CC3)c2)cc1-c1ccnc(-c2ccnc(NC(=O)C3CC3)c2)n1")
"≥ 7.00"
>>> result("CO[C@H]1CC[C@H](C(=O)Nc2ccc(C)c(-c3ccnc(-c4ccnc(NC(=O)C5CC5)c4)n3)c2)CC1")
"5.00 to 6.00"
>>> result("CC(=O)Nc1cc(-c2nccc(-c3cc(NC(=O)c4ccnc(C(C)(C)C#N)c4)ccc3C)n2)ccn1")
"≥ 7.00"
>>> result("Cc1nc(-c2ccnc(NC(=O)C3CC3)c2)cc(-c2cc(NC(=O)c3ccnc(C4(C#N)CC4)c3)cnc2C)n1")
"6.30 to 7.00"

* * *

# target: B-Raf kinase (SEQ. ID NO: 2) (Homo sapiens (Human), UniProt P15056)
# Sequence (P15056 416-766): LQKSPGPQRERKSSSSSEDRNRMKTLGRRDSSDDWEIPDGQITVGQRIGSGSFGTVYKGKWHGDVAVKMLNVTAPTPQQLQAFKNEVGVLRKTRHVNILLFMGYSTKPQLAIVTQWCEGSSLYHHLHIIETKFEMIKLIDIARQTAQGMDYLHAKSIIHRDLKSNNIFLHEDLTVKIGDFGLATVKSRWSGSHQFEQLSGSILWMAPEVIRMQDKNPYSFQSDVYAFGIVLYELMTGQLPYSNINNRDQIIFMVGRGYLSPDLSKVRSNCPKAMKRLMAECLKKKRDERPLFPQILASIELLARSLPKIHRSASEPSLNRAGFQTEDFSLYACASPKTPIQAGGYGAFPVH
# assay.notes: Biochemical Assay for B-Raf (1)
# test.context: Table J, assay version (1); read-out: BRAF (1) IC50
Listed below: IC50 values for each entry.
assay.metric: IC50

>>> result("COc1cc(C(=O)Nc2ccc(C)c(-c3cncc(-c4ccnc(NC(C)=O)c4)n3)c2)ccc1F [Example 120]")
"≤ 100 nM"
>>> result("Cc1ncc(NC(=O)c2ccnc(C(C)C)c2)cc1-c1cccc(-c2ccnc(NC(=O)C3CC3)c2)n1 [Example 269]")
"≤ 100 nM"
>>> result("CC(=O)Nc1cc(-c2nccc(-c3cc(NC(=O)c4ccnc(C(F)(F)F)c4)c(F)cc3C)n2)ccn1 [Example 107]")
"≤ 100 nM"
>>> result("CNC(=O)c1cc(-c2cc(-c3cc(NC(=O)c4ccnc(C(C)(C)C#N)c4)ccc3C#N)ccn2)ccn1 [Example 247]")
"1000 to 10000 nM"

* * *

# target: B-Raf (V600E) (SEQ. ID NO: 4) kinase (Homo sapiens (Human), UniProt P15056, V600E)
# Sequence (P15056 416-766 V600E): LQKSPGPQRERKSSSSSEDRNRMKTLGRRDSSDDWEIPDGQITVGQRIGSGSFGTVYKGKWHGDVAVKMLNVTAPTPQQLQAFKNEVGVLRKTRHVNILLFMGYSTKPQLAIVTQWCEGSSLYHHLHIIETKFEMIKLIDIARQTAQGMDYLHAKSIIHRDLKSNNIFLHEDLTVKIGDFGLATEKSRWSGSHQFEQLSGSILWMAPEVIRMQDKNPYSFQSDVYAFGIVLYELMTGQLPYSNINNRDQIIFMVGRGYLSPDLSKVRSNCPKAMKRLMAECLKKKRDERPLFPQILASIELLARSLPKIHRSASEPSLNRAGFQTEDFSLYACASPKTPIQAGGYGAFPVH
# assay.notes: Biochemical Assay for B-Raf (V600E) (1)
# test.context: Table J, BRAF V600E, biochemical assay (1); read-out: BRAF VE (1)
Below is a list of entries, each paired with its recorded IC50 value.
assay.metric: IC50

>>> result("COC(=O)Nc1cc(-c2cncc(-c3cc(NC(=O)c4ccnc(C(C)(C)F)c4)c(F)cc3C)c2)ccn1")
"≤ 100 nM"
>>> result("COC(=O)Nc1cc(-c2cccc(-c3cc(NC(=O)Cn4cc(C(C)C)nn4)cnc3C)c2)ccn1")
"1000 to 10000 nM"
>>> result("Cc1ccc(NC(=O)c2ccnc(C(C)(C)C#N)c2)cc1-c1cncc(-c2cc(NC(=O)C(C)C)ncn2)c1")
"≤ 100 nM"
>>> result("Cc1cc(F)c(NC(=O)c2ccnc(C(C)(C)C#N)c2)cc1-c1cncc(-c2ccnc(NC(=O)C3CC3)c2)c1")
"≤ 100 nM"

* * *

pIC50: recorded values
# target: B-Raf kinase (SEQ. ID NO: 2) (Homo sapiens (Human))
# assay.notes: Biochemical Assay for B-Raf (1)
# test.context: Table J, assay version (1); read-out: BRAF (1) IC50
pIC50: −log10 of the molar value.
assay.metric: pIC50

>>> result("CNC(=O)c1cc(-c2cccc(-c3cc(NC(=O)c4ccnc(C(C)(C)C#N)c4)cnc3C)c2)ncn1 [Example 204]")
"6.30 to 7.00"
>>> result("Cc1ccc(NC(=O)c2ccnc(C(C)(C)C#N)c2)cc1-c1cccc(-c2cc(NC(=O)C(C)(C)C)ncn2)c1 [Example 210]")
"6.00 to 6.30"
>>> result("CNC(=O)c1cc(-c2cncc(-c3cc(NC(=O)c4ccnc(C5CC5)c4)ccc3C)n2)ccn1 [Example 139]")
"≥ 7.00"
>>> result("CC(=O)Nc1cc(-c2cncc(-c3cc(C(=O)Nc4cnn(C(C)C)c4)ccc3C)n2)ccn1 [Example 87]")
"≥ 7.00"

* * *

# System: Miapaca-2 cells
# assay.notes: MiaPaca-2 Combination Cell proliferation Assay (1) with cobimetinib
# Format: cell-based
# test.context: MiaPaca-2 cell proliferation, read-out: MiaPaca-2 Combo (1) IC50
pIC50: −log10 of the molar value.
We begin with a simple list: items and their reported pIC50.
assay.metric: pIC50

>>> result("Cc1ccc(NC(=O)c2ccnc(C(F)F)c2)cc1-c1cncc(-c2ccnc(NC(=O)C3CC3)c2)n1")
"≥ 7.00"
>>> result("CC(=O)Nc1cc(-c2cccc(-c3cc(NC(=O)c4ccnc(C(C)(C)C#N)c4)ccc3C)c2)ncn1")
"≥ 7.00"
>>> result("COC(=O)Nc1cc(-c2cc(-c3cc(NC(=O)c4ccnc(C(C)(C)F)c4)c(F)cc3C)ccn2)ccn1")
"≥ 7.00"
>>> result("Cc1ccc(NC(=O)c2ccnc(C(C)(C)C#N)c2)cc1-c1cc(-c2ccnc(NC(=O)C3CC3)c2)cnn1")
"≥ 7.00"
>>> result("CNc1cc(-c2cccc(-c3cc(NC(=O)c4ccnc(C(C)(C)C#N)c4)ccc3C)c2)ncn1")
"6.30 to 7.00"
>>> result("Cc1ccc(NC(=O)c2ccnc(C(C)(C)C#N)c2)cc1-c1cccc(-c2cc(NC(=O)C3CC3)ncn2)c1")
"≥ 7.00"
>>> result("CNC(=O)c1cc(-c2cncc(-c3cc(NC(=O)c4ccnc(C5(C#N)CC5)c4)ccc3C)n2)ccn1")
"6.30 to 7.00"
